// data source = PubChem BioAssay (NCI)

tested on: HT29 colon; assay: NCI-60 one-dose screen, 48 h; details: 10 µM unless noted
Compounds without any hit were thinned out: in the full panel of roughly 83,000, 20% have a hit. Activity calls are given as the source filed them. Rule for the calls: active = growth percent below 10; inactive = the rest.
Classes used: yes (1) = active, no (0) = inactive

>>> print(df.to_string())
                                    compound  class_label
 0  COc1cc2c(c(OC)c1OC)C(=O)CC(c1cccc(NC(=O)c3cc(N)ccc3Cl)c1)O2 (stereo not given)       no (0)
 1  COC(=O)/C=C/c1cccc2c1C(=O)NC(C)(c1cc3ccccc3oc1=O)N2 (stereo not given)       no (0)
 2  COc1cc(NC(=O)c2cccc(C3CCc4c(cc(OC)c(OC)c4OC)O3)c2)cc(OC)c1OC (stereo not given)      yes (1)
 3  C=C1CC[C@@H]2[C@]3(C)COC(c4cn[nH]c4-c4ccc(F)cc4)O[C@@H]3CC[C@@]2(C)[C@@H]1C/C=C1/C(=O)OCC1O (stereo not given in full)      yes (1)
 4  Cc1ccc(C(SCCNCc2cc(N(C)C)ccn2)(c2ccccc2)c2ccccc2)cc1      yes (1)
 5  O=c1cc(-c2ccccc2)oc2cc(OCCCC[P+](c3ccccc3)(c3ccccc3)c3ccccc3)cc(O)c12      yes (1)
 6  O=C(c1ccccc1)C(c1c[nH]c2ccccc12)c1c[nH]c2ccccc12       no (0)
 7  COc1ccc(N2N=C(c3ccc4c(c3)OCO4)CC2c2cccc(NC(=O)CCCNS(=O)(=O)c3ccc(F)cc3)c2)cc1 (stereo not given)       no (0)
 8  CCOc1ccc(C(=O)NC(=S)Nc2ccc(S(N)(=O)=O)cc2)cc1       no (0)
 9  COc1ccc(C(=O)/C=C/c2cccc(Cl)c2Cl)cc1S(N)(=O)=O      yes (1)
10  COc1ccc(-c2ccnc(SCc3cc4cc(Cl)ccc4[nH]c3=O)n2)cc1       no (0)
11  Cn1cc(-c2cc(N)n3nc(-c4cn(C)c5ncccc45)cc3n2)c2cccnc21      yes (1)
12  O=[N+]([O-])c1ccc(/C=C/c2nc3ccccc3n3c(=S)[nH]nc23)cc1       no (0)
13    N/C(=N\c1nc2ccccc2s1)NC(=O)Nc1ccccc1Br      yes (1)
14  CCC(C)(C)c1ccc(OCCCCCCN2CCN(c3ccncc3)CC2)cc1      yes (1)
15    CCCCOc1ccc(NC(=O)c2sc3nc(C)ccc3c2N)cc1       no (0)
16  CNC(=O)c1cccc(NC(=O)c2ccc3c(c2)nnn3/C(C#N)=C/c2ccccn2)c1      yes (1)
17  COc1ccc(-c2ccnc(SCc3cc4ccccc4[nH]c3=O)n2)cc1       no (0)
18  CC12CC[C@@H]3[C@]4(C)COC(c5cn[nH]c5-c5cccc(Cl)c5)O[C@@H]4CC[C@@]3(C)[C@@H]1CC(C1=CCOC1=O)O2 (stereo not given in full)       no (0)
19  O=C(c1ccccc1)c1ccc2nc(-c3cccc(Cl)c3)[nH]c2c1       no (0)

* * *

System: OVCAR-4 ovarian
Assay: NCI-60 one-dose screen, 48 h (100 = growth as untreated, 0 = no growth, -100 = all killed)
Conditions: 10 µM unless noted
Method: Growth inhibition of the OVCAR-4 human tumor cell line is measured as a screen for anti-cancer activity. Cells are grown in 96 well plates and exposed to the test compound for 48 hours. Compounds are tested at a single concentration, which is 10^-5 M for most compounds. The reported endpoint is percent growth (GI% or GIPRCNT), where numbers from 0 - 100% represent growth inhibition, and numbers from -100% - 0 represent cell death. For example, a value of 40 represents 60% growth inhibition. […]
The panel holds about 83,000 compounds, 20% with a hit somewhere; the sample as a whole holds those more often.
Classify as follows. Reported growth greater than or equal to 50%: true (1). Reported growth below: false (0).

Compound	Class label
Cc1ccc(/C=C/c2n(Cc3ccc4ccccc4c3)c3ccccc3[n+]2Cc2ccc3ccccc3c2)cc1	false (0)
CCCSc1nc(Nc2ccc(S(N)(=O)=O)cc2)c(C#N)c(-c2cc(OC)c(OC)c(OC)c2)n1	false (0)
N#Cc1cnn(C(=O)c2ccccc2Br)c1NC(=O)c1ccc(Br)cc1Cl	true (1)
COc1ccc(NC(=O)Nc2ccc(OCc3ccc(F)cc3)cc2)cc1	false (0)
C/C(=N\N=C1/C(=O)Nc2ccc(Cl)cc21)c1ccc2c(c1)Nc1ccccc1S2	false (0)
CC(=O)/C=C/c1cccc2c1C(=O)NC(C)(c1cc3cc(Br)ccc3oc1=O)N2 (stereo not given)	false (0)
COc1ccc(-c2ccnc(SCc3cc4ccccc4[nH]c3=O)n2)cc1	false (0)
COc1ccc(C2=NN(C(C)=O)C(c3ccc(OCc4ccc(Cl)cc4)c(OC)c3)C2)cc1OC (stereo not given)	false (0)
CC(=O)Nc1ccc(C(=O)NC(=S)Nc2ccc(S(N)(=O)=O)cc2)cc1	true (1)
CN1CCN(c2ccc(C(=O)/C=C/c3cc(C(F)(F)F)cc(C(F)(F)F)c3)cc2)CC1	false (0)
NS(=O)(=O)c1ccc(-n2cc(-c3cccc(NC(=O)c4ccc(Cl)c(C(F)(F)F)c4)c3)nn2)cc1	false (0)
N#Cc1c(-c2cccc(Cl)c2Cl)cc(-c2c[nH]c3ccccc23)[nH]c1=O	true (1)
Cn1cc(NC(=O)c2cc(NC(=O)c3ccc(/C=C/c4ccccc4)cc3)cn2C)cc1C(=O)NCCCN1CCOCC1	true (1)
O=c1[nH]c2ccccc2cc1CSc1nccc(-c2ccc3ccccc3c2)n1	true (1)
COc1cc(/C=C/C(=O)c2ccccc2)ccc1Oc1nc(Nc2ccc(F)cc2)nc(N(C)C)n1	false (0)
O=C(N=Nc1c(O)[nH]c2ccc([N+](=O)[O-])cc12)c1ccc2nc(-c3ccccc3)[nH]c2c1	false (0)
C/C(=N\Nc1ccc(S(N)(=O)=O)cc1)c1ccc(N=Nc2c(Nc3ccccc3)[nH][nH]c2=O)cc1	false (0)
O=C(O)c1ccc(-c2ccc(/C=N/NC(=O)c3[nH]c4ccc(Br)cc4c3-c3ccccc3)s2)cc1	false (0)
CC1=C(C(=O)c2ccccc2)C(c2ccc(-n3cncn3)cc2)n2c(nc3ccccc32)N1 (stereo not given)	true (1)
NS(=O)(=O)c1ccc(N=Nc2c(O)n(CC(=O)Nc3ccccc3Cl)c3ccccc23)cc1	true (1)
CCOC(=O)C(N=Nc1ccc(S(=O)(=O)N=C(N)N)cc1)C(C)=O (stereo not given)	true (1)
CCCSc1nc(NCCc2c[nH]c3ccccc23)c(C#N)c(-c2ccc(F)cc2)n1	true (1)
CC(=O)OC[C@@]1(C)C2CC[C@]3(C)C(CC=C4C5CC(C)(C)CC[C@]5(C(=O)Nc5ccc(F)cc5)CC[C@]43C)[C@@]2(C)C[C@@H](OC(C)=O)[C@@H]1OC(C)=O (stereo not given in full)	false (0)
CCCCSc1nc(Nc2ccc(S(N)(=O)=O)cc2)c(C#N)c(-c2cc(OC)c(OC)c(OC)c2)n1	false (0)
Cc1ccc([C@H]2C(C(=O)c3ccc(Cl)cc3)C3(N[C@@H]2c2ccccc2)C(=O)Nc2ccc(Br)cc23)cc1 (stereo not given in full)	true (1)
COc1cc2c(c(OC)c1OC)C(=O)CC(c1cccc(NC(=O)c3cc(NC(=O)[C@H](CO)NC(=O)OC(C)(C)C)ccc3Cl)c1)O2 (stereo not given in full)	false (0)
Cc1ccc(NC(=O)[C@]23CCC(C)(C)CC2C2=CCC4[C@@]5(C)C[C@@H](O)[C@H](O)[C@@](C)(CO)C5CC[C@@]4(C)[C@]2(C)CC3)cc1 (stereo not given in full)	false (0)
O=C(COc1ccc(NC(=O)Nc2ccc(Cl)c(Cl)c2)cc1)N=Nc1c(O)[nH]c2ccc([N+](=O)[O-])cc12	true (1)
COC1=C[C@]23CCC(=O)N2CCc2cc4c(cc2[C@@H]3[C@@H]1OC(=O)[C@H](C)O)OCO4	false (0)
O=c1oc2ccccc2cc1-c1csc(N=Nc2c(O)[nH]c3ccc(Cl)cc23)n1	true (1)
CCN1CCN(Cc2ccc(C(=O)Nc3cccc(C#Cc4cccc5[nH]nc(N)c45)c3)cc2C(F)(F)F)CC1	false (0)
Nc1nnc(-c2c[nH]c3ccc(Br)cc23)c(-c2c[nH]c3ncc(Br)cc23)n1	false (0)
CC(=O)Nc1ccc(-n2cnc3cc(-c4ccc(O)cc4)ccc32)cc1C(F)(F)F	false (0)
Cc1cc(N=C2NC(=O)CS2)n[nH]1	true (1)
S=C(Nc1ccc(OCc2nc3ccccc3[nH]2)cc1)NC1CCCCC1	true (1)

* * *

System: OVCAR-3 ovarian
Assay: NCI-60 one-dose screen, 48 h (100 = growth as untreated, 0 = no growth, -100 = all killed)
Conditions: 10 µM unless noted
Experimental: Growth inhibition of the OVCAR-3 human tumor cell line is measured as a screen for anti-cancer activity. Cells are grown in 96 well plates and exposed to the test compound for 48 hours. Compounds are tested at a single concentration, which is 10^-5 M for most compounds. The reported endpoint is percent growth (GI% or GIPRCNT), where numbers from 0 - 100% represent growth inhibition, and numbers from -100% - 0 represent cell death. For example, a value of 40 represents 60% growth inhibition. […]
About 83,000 compounds went through this panel and 20% of them were active in at least one assay; those are over-represented in the sample as a whole. Activity calls are given as the source filed them. How the source made its calls: active means growth percent below 10; inactive means the rest.

Compound	growth
Cc1cccc(NC(=O)CN2CCN(c3ncnc4c3cnn4-c3ccccc3)CC2)c1	98.9% (inactive)
CNC(=O)c1cccc(NC(=O)c2ccc3c(c2)nnn3/C(C#N)=C/c2ccccn2)c1	-69.2% (active)
COc1c(F)ccc(C(=O)Nc2ccc3nc(NC(=O)C4CCCN(S(=O)(=O)c5ccc(Br)c(F)c5)C4)sc3c2)c1F (centres undefined)	96.8% (inactive)
COc1cc2c(c(OC)c1OC)C(=O)CC(c1cccc(NC(=O)[C@@H](N)CC(C)C)c1)O2 (some centres undefined)	97.9% (inactive)
O=C(NNc1nc2cc(F)ccc2n2c(CN3CC4CNCC4C3)ccc12)c1ccncn1 (centres undefined)	43.1% (inactive)
Cn1cc(-c2nnc(N)nc2-c2c[nH]c3ccc(Br)cc23)c2cc(Br)cnc21	55.8% (inactive)
O=c1[nH]c2ccccc2cc1CSc1cccc(Nc2nccc(-c3ccc4ccccc4c3)n2)c1	117% (inactive)
C#CCOc1cc(N(CC)CC)ccc1C(C(=O)NC(C)(C)C)N(C(=O)C1CCc2cc(F)ccc2O1)c1ccc(F)c(Cl)c1 (centres undefined)	57.7% (inactive)
COc1ccc(-c2nnc3ccc(N/N=C/c4ccc(O)cc4)nn23)cc1	37.6% (inactive)
C=C1CC[C@@H]2[C@]3(C)COC(c4cn(-c5ccccc5)nc4-c4ccccc4)O[C@@H]3CC[C@@]2(C)[C@@H]1C/C=C1/C(=O)OC[C@H]1O (some centres undefined)	-77.8% (active)
CCCCCCCCc1ccc(S(=O)(=O)Nc2ccc(CC)cc2C(=O)O)cc1	113% (inactive)
CC(C)CCNC(=O)N/C(N)=N/c1nc2ccccc2s1	80.4% (inactive)
N#Cc1c(-c2cccc(Cl)c2Cl)cc(-c2ccc3ccccc3c2)[nH]c1=O	31.6% (inactive)
CC(=O)Nc1ccc(C(=O)NC(=S)Nc2ccc(S(N)(=O)=O)cc2)cc1	97.7% (inactive)
O=C(CN1C(=O)/C(=C/c2ccccc2Cl)SC1=S)N1CCOCC1	77.1% (inactive)
C/C(=N\N=C1/C(=O)Nc2ccc(Cl)cc21)c1ccc2c(c1)Nc1ccccc1S2	-66.9% (active)
O=C(N=Nc1c(O)[nH]c2ccc([N+](=O)[O-])cc12)c1ccc2nc(-c3ccccc3)[nH]c2c1	-13.2% (active)
COC(=O)/C=C/c1cccc2c1C(=O)NC(C)(c1cc3ccccc3oc1=O)N2 (centres undefined)	74.1% (inactive)
Cn1cc(-c2nc(N)nnc2-c2c[nH]c3ccc(Br)cc23)c2cc(Br)cnc21	0.628% (active)
